# Lookup of reported logP[a] keyed by entry
- experimental-details: log P determination by HPLC on reversed-phase columns (C 18), analogous to OECD Guideline 117
- Format: physicochemical
- measurement-parameters: method [a]

{"compound": "Cc1cc(F)c(N2C(=O)N(C(=O)NCC(C)C)C(C)(C)C2=O)cc1[S+]([O-])CC(F)(F)F (racemic) [compound 86]", "observed-measurement": 3.41}

Endpoint output: logP[a] of Cc1cc(F)c(N2C(=O)CN(C(=O)NCC3CCCO3)C2=O)cc1[S+]([O-])CC(F)(F)F (mixture of isomers) [compound 91] . Value?
2.19

Give its logP[a] value. Item: Cc1cc(F)c(N2C(=O)CN(C(=O)NCC(F)(F)F)C2=O)cc1[S+]([O-])CC(F)(F)F (single isomer, unassigned) [Ex. No. 135]
2.4

Value lookup for logP[a]; key = CCNC(=O)N1CC(=O)N(c2cc(SCC(F)(F)F)c(Cl)cc2Cl)C1=O [compound 103]
3.25

Fill in: logP[a] of Cc1cc(C)c([S+]([O-])CC(F)(F)F)cc1N1C(=O)CN(C(=O)Nc2ccc(F)cc2)C1=O (racemic) [compound 99] is ___
3.01

Which measured logP[a] value corresponds to Cc1cc(F)c(N2C(=O)CN(C(=O)N3CCS(=O)(=O)CC3)C2=O)cc1[S+]([O-])CC(F)(F)F (stereo not shown) [compound 134] ?
1.66

Fill in: logP[a] of Cc1cc(Cl)c(N2C(=O)CN(C(=O)NCC(C)C)C2=O)cc1[S+]([O-])CC(F)(F)F (racemic) [compound 65] is ___
2.95

---

- experimental-details: log P determination by HPLC on reversed-phase columns (C 18), analogous to OECD Guideline 117
- Format: physicochemical
- measurement-parameters: reversed-phase HPLC column (C 18), pH 7.8, HPLC, neutral range, pH 7.8, 0.001 molar aqueous ammonium hydrogencarbonate and acetonitrile; read-out: log P(neutral)
Lab note: compare chromatographic logP with 3, writing Criterion met if less and Criterion not met if equal or more.

{"compound": "Cc1cc(F)c(N2C(=O)N(C(=O)NC3CC3)C(C)(C)C2=O)cc1SCC(F)(F)F [Ex. No. 74]", "cat": "Criterion not met"}
{"compound": "Cc1cc(F)c(N2C(=O)CN(C(=O)NCC(F)(F)F)C2=O)cc1[S+]([O-])CC(F)(F)F (stereo not shown) [Ex. No. 36]", "cat": "Criterion met"}
{"compound": "CCNC(=O)N1C(=O)N(c2cc(SCC(F)(F)F)c(C)cc2F)C(=O)C1C (stereo not shown) [Ex. No. 24]", "cat": "Criterion not met"}
{"compound": "Cc1cc(F)c(N2C(=O)NC(C)C2=O)cc1SCC(F)(F)F (stereo not shown) [IIa-3]", "cat": "Criterion met"}
{"compound": "Cc1cc(F)c(N2C(=O)CN(C(=O)NCC(C)C)C2=O)cc1SCC(F)(F)F [Ex. No. 12]", "cat": "Criterion not met"}
{"compound": "Cc1cc(F)c(N2C(=O)CNC2=O)cc1[S+]([O-])CC(F)(F)F (stereo not shown) [IIb-1]", "cat": "Criterion met"}
{"compound": "Cc1cc(F)c(N2C(=O)CN(C(=O)NCC(F)(F)F)C2=O)cc1SCC(F)(F)F [Ex. No. 30]", "cat": "Criterion not met"}
{"compound": "Cc1cc(F)c(N2C(=O)CN(C(=O)NC3CC3)C2=O)cc1[S+]([O-])CC(F)(F)F (stereo not shown) [Ex. No. 3]", "cat": "Criterion met"}

# next compound below
Is it true that chromatographic logP reported for Cc1cc(F)c(N2C(=O)N(C(=O)NC3CC3)C(C)(C)C2=O)cc1[S+]([O-])CC(F)(F)F (stereo not shown) [Ex. No. 84] is less than 3?
Criterion met
